# Assay Procedure: Cytotoxicity against human H1299 cells after 72 hrs by alamar blue assay
# Format: functional, cell-based
# Measurement Parameters: NCI-H1299, 72 h
Assignment: determine reported IC50 for the given compounds.
Give bare numbers, in nM.

Cc1cc(NC(=O)Nc2ccc(N(CCCl)CCCl)cc2)c2cc(N(C)C)ccc2n1	714

Record IC50 per entry; entries follow.
1. COc1cccc(-c2cc(NC(=O)Nc3ccc(N(CCCl)CCCl)cc3)c3cc(N4CCCC4)ccc3n2)c1
2. O=C(NNc1ccc(N(CCCl)CCCl)cc1)Nc1cc(-c2ccccc2F)nc2cc3c(cc12)OCO3

3810
491
